biological target: T1, human MET extracellular domain (ECD) (human, UniProt P08581 25-932); assay: ELISA, periplasmic Fab on MET ECD
T1 construct: range 1-932; recombinant ECD; also called hMET; human MET ECD
T1 sequence (P08581 25-932 limits assumed, form in doubt): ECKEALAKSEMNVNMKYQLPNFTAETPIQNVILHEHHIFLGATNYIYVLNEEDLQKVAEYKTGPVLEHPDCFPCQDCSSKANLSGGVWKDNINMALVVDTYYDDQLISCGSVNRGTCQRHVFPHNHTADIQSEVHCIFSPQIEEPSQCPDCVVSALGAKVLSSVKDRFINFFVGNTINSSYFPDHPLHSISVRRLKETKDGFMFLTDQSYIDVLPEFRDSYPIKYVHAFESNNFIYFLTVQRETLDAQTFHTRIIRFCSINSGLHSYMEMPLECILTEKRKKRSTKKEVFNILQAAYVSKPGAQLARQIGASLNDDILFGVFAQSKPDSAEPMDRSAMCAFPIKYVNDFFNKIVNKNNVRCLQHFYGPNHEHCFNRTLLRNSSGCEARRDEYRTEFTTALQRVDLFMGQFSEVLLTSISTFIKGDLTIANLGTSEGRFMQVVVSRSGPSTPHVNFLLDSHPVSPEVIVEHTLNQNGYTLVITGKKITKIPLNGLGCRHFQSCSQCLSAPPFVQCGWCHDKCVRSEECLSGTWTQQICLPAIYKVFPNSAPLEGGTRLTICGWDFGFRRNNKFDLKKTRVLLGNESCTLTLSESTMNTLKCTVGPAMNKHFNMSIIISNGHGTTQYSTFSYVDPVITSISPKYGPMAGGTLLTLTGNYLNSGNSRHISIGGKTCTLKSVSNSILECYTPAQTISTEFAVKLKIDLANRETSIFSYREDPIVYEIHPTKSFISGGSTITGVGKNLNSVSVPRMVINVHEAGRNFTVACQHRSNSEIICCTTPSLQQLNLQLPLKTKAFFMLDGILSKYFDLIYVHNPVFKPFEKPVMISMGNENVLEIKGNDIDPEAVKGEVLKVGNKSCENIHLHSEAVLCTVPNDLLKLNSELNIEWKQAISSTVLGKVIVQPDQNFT

- binder: "Fab 71G3 (Fab, V domains shown, llama Fab (VH-CH1, lambda VL-CL) with MYC flag, crude periplasmic extract) VH: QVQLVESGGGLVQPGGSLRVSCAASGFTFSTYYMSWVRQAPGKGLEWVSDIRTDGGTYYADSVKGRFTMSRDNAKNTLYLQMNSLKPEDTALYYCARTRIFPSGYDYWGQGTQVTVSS VL: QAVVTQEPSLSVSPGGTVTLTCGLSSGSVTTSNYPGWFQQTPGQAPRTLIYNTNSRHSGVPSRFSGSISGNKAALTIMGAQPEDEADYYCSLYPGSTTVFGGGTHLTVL"
  ELISA OD450, AU: 3.46
- binder: "Fab 76G7 (Fab, V domains shown, llama Fab (VH-CH1, lambda VL-CL) with MYC flag, crude periplasmic extract) VH: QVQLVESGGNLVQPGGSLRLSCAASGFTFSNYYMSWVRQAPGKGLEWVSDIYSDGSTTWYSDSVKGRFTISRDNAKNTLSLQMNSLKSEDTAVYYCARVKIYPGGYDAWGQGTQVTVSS VL: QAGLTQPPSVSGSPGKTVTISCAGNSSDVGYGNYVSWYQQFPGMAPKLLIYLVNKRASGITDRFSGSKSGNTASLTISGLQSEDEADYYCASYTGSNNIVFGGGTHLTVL"
  ELISA OD450, AU: 3.2
